Assay: Photostability assessed as residual absorbance at 2.5 mW/cm'2 irradiation for 15 mins by photobleaching test
Format: physicochemical
Settings: read-out: Stability
The molecules listed here are annotated with their remaining at 0.25 h.

{"columns": ["Smiles Record", "remaining at 0.25 h / %"],
 "data": [
  ["NCCCNCCCCN(CCCN)CCCCNC(=O)c1ccc(-c2c3nc(c(-c4ccc(C(=O)NCCCCN(CCCN)CCCCNCCCN)cc4)c4[nH]c(c(-c5ccc(C(=O)NCCCCN(CCCN)CCCCNCCCN)cc5)c5nc(c(-c6ccc(C(=O)NCCCCN(CCCN)CCCCNCCCN)cc6)c6[nH]c2c2ccccc62)-c2ccccc2-5)c2ccccc42)-c2ccccc2-3)cc1", 100],
  ["OC[C@H]1O[C@@H](Oc2ccc(-c3c4nc(c(-c5ccc(O[C@@H]6O[C@H](CO)[C@@H](O)[C@H](O)[C@H]6O)cc5)c5[nH]c(c(-c6ccc(O[C@@H]7O[C@H](CO)[C@@H](O)[C@H](O)[C@H]7O)cc6)c6nc(c(-c7ccc(O[C@@H]8O[C@H](CO)[C@@H](O)[C@H](O)[C@H]8O)cc7)c7[nH]c3c3ccccc73)-c3ccccc3-6)c3ccccc53)-c3ccccc3-4)cc2)[C@H](O)[C@@H](O)[C@@H]1O", 100],
  ["NCCCCN(CCCN)CCCCNC(=O)c1ccc(-c2c3nc(c(-c4ccc(C(=O)NCCCCN(CCCN)CCCCN)cc4)c4[nH]c(c(-c5ccc(C(=O)NCCCCN(CCCN)CCCCN)cc5)c5nc(c(-c6ccc(C(=O)NCCCCN(CCCN)CCCCN)cc6)c6[nH]c2c2ccccc62)-c2ccccc2-5)c2ccccc42)-c2ccccc2-3)cc1", 100]
]}

###

Assay: Photostability assessed as residual absorbance at 2.5 mW/cm'2 irradiation for 30 mins by photobleaching test
Format: physicochemical
Details: read-out: Stability

{"columns": ["Smiles Record", "Unit Name", "remaining at 0.5 h"],
 "data": [
  ["OC[C@H]1O[C@@H](Oc2ccc(-c3c4nc(c(-c5ccc(O[C@@H]6O[C@H](CO)[C@@H](O)[C@H](O)[C@H]6O)cc5)c5[nH]c(c(-c6ccc(O[C@@H]7O[C@H](CO)[C@@H](O)[C@H](O)[C@H]7O)cc6)c6nc(c(-c7ccc(O[C@@H]8O[C@H](CO)[C@@H](O)[C@H](O)[C@H]8O)cc7)c7[nH]c3c3ccccc73)-c3ccccc3-6)c3ccccc53)-c3ccccc3-4)cc2)[C@H](O)[C@@H](O)[C@@H]1O", "%", 99],
  ["NCCCCN(CCCN)CCCCNC(=O)c1ccc(-c2c3nc(c(-c4ccc(C(=O)NCCCCN(CCCN)CCCCN)cc4)c4[nH]c(c(-c5ccc(C(=O)NCCCCN(CCCN)CCCCN)cc5)c5nc(c(-c6ccc(C(=O)NCCCCN(CCCN)CCCCN)cc6)c6[nH]c2c2ccccc62)-c2ccccc2-5)c2ccccc42)-c2ccccc2-3)cc1", "%", 99],
  ["NCCCNCCCCN(CCCN)CCCCNC(=O)c1ccc(-c2c3nc(c(-c4ccc(C(=O)NCCCCN(CCCN)CCCCNCCCN)cc4)c4[nH]c(c(-c5ccc(C(=O)NCCCCN(CCCN)CCCCNCCCN)cc5)c5nc(c(-c6ccc(C(=O)NCCCCN(CCCN)CCCCNCCCN)cc6)c6[nH]c2c2ccccc62)-c2ccccc2-5)c2ccccc42)-c2ccccc2-3)cc1", "%", 100]
]}

###

Assay: Induction of singlet oxygen production assessed as appearance of ergosterol acetate epidioxide at 10 uM after 10 mW/cm'2 irradiation for 30 mins by TLC
Type: physicochemical
Conditions: 0.5 h
Measurement Kind: Activity

{"columns": ["Smiles Record", "Measurement Kind", "Result"],
 "data": [
  ["CC(C)(C)OC(=O)NCCOCCOCCNC(=O)c1ccc(-c2c3nc(c(-c4ccc(C(=O)NCCOCCOCCNC(=O)OC(C)(C)C)cc4)c4[nH]c(c(-c5ccc(C(=O)NCCOCCOCCNC(=O)OC(C)(C)C)cc5)c5nc(c(-c6ccc(C(=O)NCCOCCOCCNC(=O)OC(C)(C)C)cc6)c6[nH]c2c2ccccc62)-c2ccccc2-5)c2ccccc42)-c2ccccc2-3)cc1", "Activity", "Active"],
  ["OC[C@H]1O[C@@H](Oc2ccc(-c3c4nc(c(-c5ccc(O[C@@H]6O[C@H](CO)[C@@H](O)[C@H](O)[C@H]6O)cc5)c5[nH]c(c(-c6ccc(O[C@@H]7O[C@H](CO)[C@@H](O)[C@H](O)[C@H]7O)cc6)c6nc(c(-c7ccc(O[C@@H]8O[C@H](CO)[C@@H](O)[C@H](O)[C@H]8O)cc7)c7[nH]c3c3ccccc73)-c3ccccc3-6)c3ccccc53)-c3ccccc3-4)cc2)[C@H](O)[C@@H](O)[C@@H]1O", "Activity", "Active"]
]}

###

The compounds listed here are annotated with their remaining at 1 h.
Experiment: Photostability assessed as residual absorbance at 2.5 mW/cm'2 irradiation for 60 mins by photobleaching test
Format: physicochemical
Conditions: read-out: Stability

{"columns": ["Smiles Record", "remaining at 1 h (%)"],
 "data": [
  ["NCCCNCCCCN(CCCN)CCCCNC(=O)c1ccc(-c2c3nc(c(-c4ccc(C(=O)NCCCCN(CCCN)CCCCNCCCN)cc4)c4[nH]c(c(-c5ccc(C(=O)NCCCCN(CCCN)CCCCNCCCN)cc5)c5nc(c(-c6ccc(C(=O)NCCCCN(CCCN)CCCCNCCCN)cc6)c6[nH]c2c2ccccc62)-c2ccccc2-5)c2ccccc42)-c2ccccc2-3)cc1", 97],
  ["OC[C@H]1O[C@@H](Oc2ccc(-c3c4nc(c(-c5ccc(O[C@@H]6O[C@H](CO)[C@@H](O)[C@H](O)[C@H]6O)cc5)c5[nH]c(c(-c6ccc(O[C@@H]7O[C@H](CO)[C@@H](O)[C@H](O)[C@H]7O)cc6)c6nc(c(-c7ccc(O[C@@H]8O[C@H](CO)[C@@H](O)[C@H](O)[C@H]8O)cc7)c7[nH]c3c3ccccc73)-c3ccccc3-6)c3ccccc53)-c3ccccc3-4)cc2)[C@H](O)[C@@H](O)[C@@H]1O", 95],
  ["NCCCCN(CCCN)CCCCNC(=O)c1ccc(-c2c3nc(c(-c4ccc(C(=O)NCCCCN(CCCN)CCCCN)cc4)c4[nH]c(c(-c5ccc(C(=O)NCCCCN(CCCN)CCCCN)cc5)c5nc(c(-c6ccc(C(=O)NCCCCN(CCCN)CCCCN)cc6)c6[nH]c2c2ccccc62)-c2ccccc2-5)c2ccccc42)-c2ccccc2-3)cc1", 96]
]}
